Quick list: TGI per entry.
# Tested on: IGROV1 ovarian
# Assay Explanation: NCI tumour cell line growth inhibition, 48 h
Result Type: TGI (µM)

>>> result_number("COc1cc(C(=O)c2cc(C)c3[nH]c4ccc(O)cc4c3c2C)cc(OC)c1OC")
20.5
>>> result_number("C[CH2][Hg][S]c1ccccc1C(=O)O")
4.42
>>> result_number("CC(CO)(Nc1ccc([N+](=O)[O-])cc1[N+](=O)[O-])C(=O)O (stereo unspecified)")
53.7
>>> result_number("Nc1nc2c(C(=O)O)c3ccc([N+](=O)[O-])cc3c(=O)n2c2ccccc12")
86.6
>>> result_number("CC(C)/C(Cl)=N/OC(=O)Nc1ccc(Cl)c(Cl)c1")
26.4
>>> result_number("COc1cc(C(=O)Nc2cc(O)c(CC=C(C)C)c(O)c2)cc2c1O[C@]1(C)CC[C@@H](O)C(C)(C)[C@H]1C2")
46.3
>>> result_number("CC(C)(C)c1cc2nc(c1)C(C(F)(F)F)(C(F)(F)F)OB(Br)OC2(C(F)(F)F)C(F)(F)F")
8.83
>>> result_number("COc1cccc(C(=O)C#Cc2cnc(OC)nc2OC)c1")
2.12
>>> result_number("C=C1[C@@H](O)O[C@H]2[C@H]1C[C@H](OC(C)=O)[C@]13C(=O)O[C@H]4C[C@](C)(O)[C@H]([C@H]41)C31C=C(C)[C@]2(O)O1")
71.4
>>> result_number("CCN(CC)C1Oc2cc3c(cc2C(c2cccc(OC)c2OC)C1C)OCO3 (stereo unspecified)")
29.3
>>> result_number("CN=C(Nc1cccc(C(F)(F)F)c1)SCc1ccc(N=C=S)cc1")
32.8
>>> result_number("Nc1ncnc2c1ncn2[C@@H]1O[C@H](COC(c2ccccc2)(c2ccccc2)c2ccccc2)[C@@H](OC(=S)Oc2ccccc2)[C@@H]1F")
10.8
>>> result_number("Fc1ccc(/C=N/n2c(-c3ccc(F)c(Cl)c3)n[nH]c2=S)cc1")
48.8
>>> result_number("O=c1c2cc(F)ccc2sc2c(NCCCNCCO)nc3ccccc3c12")
2.9
>>> result_number("COc1ccc2c(c1)C(=O)c1c-2c(OCCN(C)C)nc2ccccc12")
14.8
>>> result_number("Cc1[nH]c(-c2cc(N)ccc2Cl)c2c1C(=O)CCCC2")
29.1
>>> result_number("CC1C=CC(OC(=O)C(C)(O)CCC(O)(C(=O)OC2CC(O)C(C(C)C)CC2(C)O)C(C)C)(C(C)C)CC1 (stereo unspecified)")
0.64

----------
# System: RPMI-8226 leukemia
# Assay Explanation: NCI tumour cell line growth inhibition, 48 h; in the data active means GI50 below about 0.43 µM; inactive means the rest
Classes used: true (1) = active, false (0) = inactive

>>> cat("Oc1cccc2c1NCCC2")
"true (1)"
>>> cat("COc1cc(C(=O)Nc2cc(O)c(CC=C(C)C)c(O)c2)cc2c1O[C@]1(C)CC[C@@H](O)C(C)(C)[C@H]1C2")
"true (1)"
>>> cat("C=CCc1cc(Nc2c3ccc(Cl)cc3nc3ccc(OC)cc23)cc(CN(CC)CC)c1O")
"true (1)"
>>> cat("COc1ccc(Nc2ccc([N+](=O)[O-])cc2[N+](=O)[O-])cc1CN(CCCl)CCCl")
"false (0)"
>>> cat("N/C(=N\\OC(=O)c1ccccc1)C(Cc1ccccc1)C(=O)NOC(=O)c1ccccc1 (stereo not drawn)")
"false (0)"
>>> cat("Cc1[nH]c(-c2cc(N)ccc2Cl)c2c1C(=O)CCCC2")
"false (0)"
>>> cat("O=c1c2cc(F)ccc2sc2c(NCCCNCCO)nc3ccccc3c12")
"false (0)"
>>> cat("C[n+]1c2ccccc2nc2c(N)cc(N)cc21")
"false (0)"
